meta.source: ChEMBL document CHEMBL5131517

Molecular target: UniProt P28335
Sequence (P28335 whole entry): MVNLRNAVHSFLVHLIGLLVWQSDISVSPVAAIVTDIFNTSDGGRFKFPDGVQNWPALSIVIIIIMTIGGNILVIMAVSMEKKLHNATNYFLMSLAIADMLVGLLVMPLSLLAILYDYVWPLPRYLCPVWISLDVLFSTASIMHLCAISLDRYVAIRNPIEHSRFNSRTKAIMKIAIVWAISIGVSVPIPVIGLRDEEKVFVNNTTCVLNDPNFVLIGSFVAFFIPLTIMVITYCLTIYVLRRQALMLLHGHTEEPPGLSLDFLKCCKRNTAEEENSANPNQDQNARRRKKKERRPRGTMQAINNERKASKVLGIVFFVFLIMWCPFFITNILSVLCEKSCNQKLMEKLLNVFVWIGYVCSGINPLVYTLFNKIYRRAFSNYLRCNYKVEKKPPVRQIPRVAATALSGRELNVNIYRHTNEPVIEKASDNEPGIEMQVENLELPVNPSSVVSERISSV
Assay: Agonist activity at human 5HT2C receptor stably expressed in Flp-In-T-REx-293 cells assessed as increase in Gq-mediated calcium flux by Fluo-4 direct dye based FLIPR Tetra assay
Format: functional, cell-based
Conditions: read-out: EC50
pEC50: −log10 of the molar value.
# cutoff 7 applies to pEC50; >= gives 1 (yes), < gives 0 (no)

                                   compound  group_label
0  CCC1NCCc2c1[nH]c1ccc(F)cc21 (configuration not stated)       0 (no)
1  Oc1ccc(C2NCCc3c2[nH]c2ccc(F)cc32)cc1 (configuration not stated)      1 (yes)
2  COc1cc(OC)c(C2NCCc3c2[nH]c2ccc(F)cc32)cc1OC (configuration not stated)      1 (yes)
3  Clc1ccc2[nH]c3c(c2c1)CCNC3c1ccc(Br)s1 (configuration not stated)       0 (no)
4  CCCC1NCCc2c1[nH]c1ccc(Cl)cc21 (configuration not stated)       0 (no)
5  CCC1NCCc2c1[nH]c1ccc(Cl)cc21 (configuration not stated)       0 (no)
6  COc1cc(OC)c(C2NCCc3c2[nH]c2ccc(O)cc32)cc1OC (configuration not stated)      1 (yes)

----------
Biological target: UniProt:P08173
Sequence (P08173 whole entry): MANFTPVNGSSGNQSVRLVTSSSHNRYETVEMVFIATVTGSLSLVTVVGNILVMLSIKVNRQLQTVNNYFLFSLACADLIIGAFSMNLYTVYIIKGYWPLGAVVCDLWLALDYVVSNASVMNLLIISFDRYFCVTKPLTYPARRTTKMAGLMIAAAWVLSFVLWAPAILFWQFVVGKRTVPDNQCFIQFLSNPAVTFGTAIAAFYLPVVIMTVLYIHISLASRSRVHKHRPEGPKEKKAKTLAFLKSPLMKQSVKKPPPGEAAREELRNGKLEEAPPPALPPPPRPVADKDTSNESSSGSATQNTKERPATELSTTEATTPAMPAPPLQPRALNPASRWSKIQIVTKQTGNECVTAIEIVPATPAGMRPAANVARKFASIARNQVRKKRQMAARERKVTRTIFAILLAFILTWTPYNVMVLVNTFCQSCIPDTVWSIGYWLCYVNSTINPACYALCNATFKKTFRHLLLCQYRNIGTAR
Assay: Inhibition of M4 receptor (unknown origin)
Conditions: concentration not given here
readout-name: inhibition

>>> print(df.to_string())
                                   compound  readout_name  result
0  COc1ccc(C2NCCc3c2[nH]c2ccc(Cl)cc32)c(O)c1 (centres undefined)    inhibition   < 50%
1  COc1cc(OC)c(C2NCCc3c2[nH]c2ccc(Cl)cc32)cc1OC (centres undefined)    inhibition   < 50%
2  COc1cc(OC)c(C2NCCc3c2[nH]c2ccc(F)cc32)cc1OC (centres undefined)    inhibition   < 50%
3  COc1ccc(C2NCCc3c2[nH]c2ccc(F)cc32)c(O)c1 (centres undefined)    inhibition   < 50%

----------
Target: UniProt:P41595
Sequence (P41595 whole entry): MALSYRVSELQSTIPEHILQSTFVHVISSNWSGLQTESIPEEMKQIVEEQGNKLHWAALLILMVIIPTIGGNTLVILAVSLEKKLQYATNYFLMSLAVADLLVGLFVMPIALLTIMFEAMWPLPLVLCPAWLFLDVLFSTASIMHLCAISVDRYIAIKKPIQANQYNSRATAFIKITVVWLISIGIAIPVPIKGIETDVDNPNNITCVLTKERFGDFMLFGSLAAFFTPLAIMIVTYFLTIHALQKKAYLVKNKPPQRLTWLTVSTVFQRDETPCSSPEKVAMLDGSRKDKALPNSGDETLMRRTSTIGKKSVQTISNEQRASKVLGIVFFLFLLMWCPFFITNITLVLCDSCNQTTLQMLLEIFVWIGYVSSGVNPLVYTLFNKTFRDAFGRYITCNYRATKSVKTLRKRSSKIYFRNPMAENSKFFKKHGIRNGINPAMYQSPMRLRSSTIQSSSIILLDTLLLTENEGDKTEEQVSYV
Assay: Agonist activity at human 5HT2B receptor stably expressed in Flp-In-T-REx-293 cells assessed as increase in Gq-mediated calcium flux by Fluo-4 direct dye based FLIPR Tetra assay
Format: functional, cell-based
Details: read-out: EC50
Response field label: string, one of Yes (EC50 strictly below 0.1 µM) or No.

>>> df
                                   molecule  group_label
0  Oc1cc(Cl)ccc1C1NCCc2c1[nH]c1ccc(Cl)cc21 (stereo unspecified)          Yes
1  Oc1cc(Br)ccc1C1NCCc2c1[nH]c1ccc(Cl)cc21 (stereo unspecified)           No
2  Cc1ccc(O)c(C2NCCc3c2[nH]c2ccc(F)cc32)c1 (stereo unspecified)           No
3  COc1ccc(OC)c(C2NCCc3c2[nH]c2ccc(F)cc32)c1 (stereo unspecified)           No
4  Oc1c(Cl)cccc1C1NCCc2c1[nH]c1ccc(F)cc21 (stereo unspecified)          Yes
5  Oc1cc(Cl)ccc1C1NCCc2c1[nH]c1ccc(F)cc21 (stereo unspecified)           No
6  Oc1cc(Br)ccc1C1NCCc2c1[nH]c1ccc(F)cc21 (stereo unspecified)          Yes
7  Cc1ccc(O)c(C2NCCc3c2[nH]c2ccc(Cl)cc32)c1 (stereo unspecified)           No
8  COc1ccc(C2NCCc3c2[nH]c2ccc(Cl)cc32)cc1OC (stereo unspecified)          Yes
9  Oc1c(Cl)cccc1C1NCCc2c1[nH]c1ccc(Cl)cc21 (stereo unspecified)           No

----------
Consider the following pKi values measured on 5-hydroxytryptamine receptor 2A (Homo sapiens).
pKi: −log10 of the molar value.
readout-name: pKi

>>> df
                                   molecule  numeric_readout
0  COc1ccc(C2NCCc3c2[nH]c2ccc(F)cc32)c(O)c1 (stereo not drawn)             6.60
1  COc1cc(OC)c(C2NCCc3c2[nH]c2ccc(F)cc32)cc1OC (stereo not drawn)             5.61
2  COc1cc(OC)c(C2NCCc3c2[nH]c2ccc(Cl)cc32)cc1OC (stereo not drawn)             6.95

----------
Biological target: 5-hydroxytryptamine receptor 2A (Homo sapiens, UniProt P28223)
Sequence (P28223 whole entry): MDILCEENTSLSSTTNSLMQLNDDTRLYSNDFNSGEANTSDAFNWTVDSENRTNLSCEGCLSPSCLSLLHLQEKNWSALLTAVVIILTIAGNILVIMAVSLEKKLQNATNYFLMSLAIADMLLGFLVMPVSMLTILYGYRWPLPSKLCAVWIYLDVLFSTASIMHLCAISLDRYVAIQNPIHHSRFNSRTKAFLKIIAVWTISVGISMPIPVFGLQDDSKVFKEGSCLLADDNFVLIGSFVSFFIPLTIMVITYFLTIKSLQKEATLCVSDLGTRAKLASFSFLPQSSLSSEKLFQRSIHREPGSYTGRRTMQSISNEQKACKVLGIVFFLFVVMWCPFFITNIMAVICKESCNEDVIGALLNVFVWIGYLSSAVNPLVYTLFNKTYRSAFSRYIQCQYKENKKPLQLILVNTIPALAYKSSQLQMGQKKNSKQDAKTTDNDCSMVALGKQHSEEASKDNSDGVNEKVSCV
Assay: Agonist activity at human 5HT2A receptor stably expressed in Flp-In-T-REx-293 cells assessed as maximal Gq-mediated calcium flux by Fluo-4 direct dye based FLIPR Tetra assay relative to control
Assay type: functional, cell-based
Details: filed as agonist
Documented Emax across a set of compounds
readout-name: Emax

>>> df
                                    compound  result
 0  Oc1ccc2[nH]c3c(c2c1)CCNC3c1cccs1 (stereo not given)   44.7%
 1  Clc1ccc2[nH]c3c(c2c1)CCNC3c1ccc(Br)s1 (stereo not given)   62.4%
 2  Fc1ccc2[nH]c3c(c2c1)CCNC3C(c1ccccc1)c1ccccc1 (stereo not given)   92.5%
 3  Fc1ccc2[nH]c3c(c2c1)CCNC3Cc1ccccc1 (stereo not given)   44.4%
 4  Oc1ccc2[nH]c3c(c2c1)CCNC3CCc1ccccc1 (stereo not given)   45.8%
 5  Oc1cc(Cl)ccc1C1NCCc2c1[nH]c1ccc(F)cc21 (stereo not given)   73.2%
 6  Cc1ccc(C2NCCc3c2[nH]c2ccc(Cl)cc32)c(C)c1 (stereo not given)   69.8%
 7  Cc1noc(C)c1C1NCCc2c1[nH]c1ccc(Cl)cc21 (stereo not given)   84.5%
 8  Fc1ncccc1C1NCCc2c1[nH]c1ccc(Cl)cc21 (stereo not given)   56.1%
 9                    NCCc1c[nH]c2ccc(O)cc12    100%
10  Oc1ccc(C2NCCc3c2[nH]c2ccc(O)cc32)cc1 (stereo not given)     80%
11  COc1cc(OC)c(C2NCCc3c2[nH]c2ccc(Cl)cc32)cc1OC (stereo not given)   98.4%
12  Clc1ccc2[nH]c3c(c2c1)CCNC3C(c1ccccc1)c1ccccc1 (stereo not given)   88.1%
13  Oc1ccc(O)c(C2NCCc3c2[nH]c2ccc(F)cc32)c1 (stereo not given)   95.2%
14  COc1ccc(C2NCCc3c2[nH]c2ccc(Cl)cc32)cc1OC (stereo not given)     96%
15  Fc1ccc2[nH]c3c(c2c1)CCNC3c1cncnc1 (stereo not given)   95.1%
16  Oc1ccc2[nH]c3c(c2c1)CCNC3c1cc(Cl)ccc1O (stereo not given)   47.6%
17  Oc1ccccc1C1NCCc2c1[nH]c1ccc(F)cc21 (stereo not given)   96.2%
18  Oc1ccc(C2NCCc3c2[nH]c2ccc(Cl)cc32)c(O)c1 (stereo not given)   91.2%
19  Fc1ccc2[nH]c3c(c2c1)CCNC3c1ccccc1F (stereo not given)   48.9%
20  Fc1ccc2[nH]c3c(c2c1)CCNC3c1ccccc1 (stereo not given)   86.5%
21  Cc1ccc(C2NCCc3c2[nH]c2ccc(F)cc32)c(C)c1 (stereo not given)   47.8%
22  COc1ccc2cc(C3NCCc4c3[nH]c3ccc(Cl)cc43)ccc2c1 (stereo not given)   66.8%
23  Cc1noc(C)c1C1NCCc2c1[nH]c1ccc(F)cc21 (stereo not given)   90.7%
24  COc1ccc(C2NCCc3c2[nH]c2ccc(Cl)cc32)c(O)c1 (stereo not given)    100%

----------
Molecular target: Beta-1 adrenergic receptor (Homo sapiens, UniProt P08588)
Sequence (P08588 whole entry): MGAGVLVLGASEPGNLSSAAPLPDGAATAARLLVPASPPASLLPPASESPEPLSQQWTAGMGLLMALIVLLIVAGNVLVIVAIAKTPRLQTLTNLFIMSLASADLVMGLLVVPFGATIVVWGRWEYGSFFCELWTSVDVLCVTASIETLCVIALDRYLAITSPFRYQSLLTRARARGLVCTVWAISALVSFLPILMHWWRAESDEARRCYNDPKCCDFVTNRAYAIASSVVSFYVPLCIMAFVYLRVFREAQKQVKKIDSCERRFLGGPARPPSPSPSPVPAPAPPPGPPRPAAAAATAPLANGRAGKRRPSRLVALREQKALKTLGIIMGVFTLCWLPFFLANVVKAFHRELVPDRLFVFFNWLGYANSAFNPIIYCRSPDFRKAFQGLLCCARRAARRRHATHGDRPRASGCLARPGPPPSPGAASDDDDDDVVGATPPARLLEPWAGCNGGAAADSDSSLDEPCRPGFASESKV
readout-name: Ki (nM)

>>> df
                                   compound  result_units  numeric_readout
0  COc1cc(OC)c(C2NCCc3c2[nH]c2ccc(F)cc32)cc1OC (stereo unspecified)            nM              961
